System: Pythium aphanidermatum
Experiment: Fungicidal activity against Pythium aphanidermatum assessed as growth inhibition at 50 ppm after 48 hr relative to untreated control
Type: functional
Details: read-out: GI
Classification field. Basis: inhibition of growth at 50 ppm. Definitions: low-valued (below 4%), mid-valued (4% to below 20%), high-valued (20% or more)

>  <Smiles text>
N=C1SCC(=O)N1c1nc(-c2ccc(Cl)cc2Cl)cs1

>  <Group>
low-valued

$$$$
>  <Smiles text>
N=C1SCC(=O)N1c1nc(-c2ccccc2)cs1

>  <Group>
mid-valued

$$$$
>  <Smiles text>
N=C1S/C(=C\c2ccccc2Cl)C(=O)N1c1nc(-c2ccc([N+](=O)[O-])cc2)cs1

>  <Group>
high-valued

$$$$
>  <Smiles text>
N=C1S/C(=C\c2cccc([N+](=O)[O-])c2)C(=O)N1c1nc(-c2ccccc2)cs1

>  <Group>
high-valued

$$$$
>  <Smiles text>
N=C1S/C(=C\c2ccccc2Cl)C(=O)N1c1nc(-c2ccc(Cl)cc2)cs1

>  <Group>
high-valued

$$$$
>  <Smiles text>
N=C1SCC(=O)N1c1nc(-c2ccc([N+](=O)[O-])cc2)cs1

>  <Group>
mid-valued

$$$$
>  <Smiles text>
N=C1S/C(=C\c2ccccc2Cl)C(=O)N1c1nc(-c2ccccc2)cs1

>  <Group>
mid-valued

$$$$
>  <Smiles text>
N=C1S/C(=C\c2ccccc2[N+](=O)[O-])C(=O)N1c1nc(-c2ccc(Cl)cc2)cs1

>  <Group>
mid-valued

$$$$
>  <Smiles text>
N=C1S/C(=C\c2ccccc2[N+](=O)[O-])C(=O)N1c1nc(-c2cc(F)c(Cl)cc2Cl)cs1

>  <Group>
low-valued

$$$$
>  <Smiles text>
N=C1SCC(=O)N1c1nc(-c2cc(F)c(Cl)cc2Cl)cs1

>  <Group>
mid-valued

$$$$
>  <Smiles text>
N=C1S/C(=C\c2ccccc2)C(=O)N1c1nc(-c2cc(F)c(Cl)cc2Cl)cs1

>  <Group>
low-valued

$$$$
>  <Smiles text>
N=C1SCC(=O)N1c1nc(-c2ccc(Cl)cc2)cs1

>  <Group>
low-valued

$$$$
>  <Smiles text>
N=C1S/C(=C\c2cccc([N+](=O)[O-])c2)C(=O)N1c1nc(-c2ccc(Cl)cc2)cs1

>  <Group>
mid-valued

$$$$
>  <Smiles text>
N=C1S/C(=C\c2ccccc2[N+](=O)[O-])C(=O)N1c1nc(-c2ccc([N+](=O)[O-])cc2)cs1

>  <Group>
mid-valued

$$$$
>  <Smiles text>
N=C1S/C(=C\c2cccc([N+](=O)[O-])c2)C(=O)N1c1nc(-c2cc(F)c(Cl)cc2Cl)cs1

>  <Group>
high-valued

$$$$
>  <Smiles text>
N=C1S/C(=C\c2cccc([N+](=O)[O-])c2)C(=O)N1c1nc(-c2ccc([N+](=O)[O-])cc2)cs1

>  <Group>
low-valued

$$$$
>  <Smiles text>
N=C1S/C(=C\c2ccccc2[N+](=O)[O-])C(=O)N1c1nc(-c2ccccc2)cs1

>  <Group>
low-valued

$$$$
